Tested on: Total ATXN3 (tATXN3) protein
test-description: Endogenous Total ATXN3 (tATXN3) Protein Assay (MSD immunoassay of cell lysates)
Assay type: cell-based
test-parameters: average IC50, total ATXN3 protein in cell lysate after 48 h with compound (Table 1)
// reported IC50 per item
metric: IC50

CCc1c([C@H]2CCCCC[C@@H]2N)sc2c(NCc3cccs3)cc(Cl)nc12 (single isomer, unassigned) [Compound 87]
30 to 300 nM
N#Cc1cc(NCc2ccco2)c2sc([C@H]3CC=CC[C@@H]3N)c(Cl)c2n1 [Compound 242]
≤ 30 nM
Cc1c([C@@H]2CCC[C@H]2N)sc2c(NCc3ccccc3)cc(Cl)nc12 [Compound 160]
> 1000 nM
C#Cc1c([C@H]2CCCC[C@@H]2N)sc2c(NCc3ccccc3)cc(Cl)nc12 [Compound 210]
≤ 30 nM
N[C@H]1CCCO[C@@H]1c1c(I)c2nc(Cl)nc(NCc3ccco3)c2n1C(F)F [Compound 225]
≤ 30 nM
N[C@H]1CCCO[C@@H]1c1sc2c(NCc3ccccc3)nc(Cl)nc2c1Br [Compound 69]
30 to 300 nM
CCc1c([C@@H]2CCC[C@H]2N)sc2c(NCc3cccs3)cc(Cl)nc12 [Compound 12]
> 1000 nM
N[C@H]1CCCCC[C@@H]1c1cc2nc(Cl)cc(NCc3cccs3)c2s1 [Compound 90]
300 to 1000 nM
